# experimentalDetails: qHTS assay to identify small molecules that stimulate interleukin-8 (IL-8) secretion (AID 651758); as to activation: 0% is about no effect
# conditionSet: HTRF ratio (665/615); series mostly up to 92.2 µM
Records with an inconclusive call do not appear. Active and inactive are the calls of the source. Calls follow the shape of the dose curve; as a rule, active = well fitted activation curve with a large enough effect in the signal ratio; inconclusive = small, poorly fitted or top-dose-only effect, or effect the other way, or a change in a side signal; inactive = flat fitted curve, though single readings scatter; the % refers to the signal ratio.
Labels: yes (1) (active), no (0) (inactive)

- compound: "CCCCCOC(=O)c1ccccc1C(=O)OCCCCC"
  classification: "no (0)"
- compound: "O=Cc1ccc2c(c1)OCO2"
  classification: "no (0)"
- compound: "COc1c(C(C)(C)C)cc([N+](=O)[O-])c(C)c1[N+](=O)[O-]"
  classification: "no (0)"
- compound: "NNC(N)=S"
  classification: "no (0)"
- compound: "CC(C)CC(C)N (configuration not stated)"
  classification: "no (0)"
- compound: "c1ccc(NNc2ccccc2)cc1"
  classification: "no (0)"
- compound: "Oc1cc(Cl)ccc1Cl"
  classification: "no (0)"
- compound: "OCC(Cl)CCl (configuration not stated)"
  classification: "no (0)"
- compound: "CSSC"
  classification: "no (0)"
- compound: "S=c1[nH]c2ccccc2[nH]1"
  classification: "no (0)"
- compound: "Clc1cc(Cl)c(Cl)c(Cl)c1"
  classification: "no (0)"
- compound: "O=[N+]([O-])c1ccccc1O"
  classification: "no (0)"
- compound: "CCOC(=O)CBr"
  classification: "no (0)"
- compound: "O=C(O)CBr"
  classification: "no (0)"
- compound: "ClC(Cl)(Cl)C(Cl)(Cl)Cl"
  classification: "no (0)"
- compound: "BrCC(Br)(Br)Br"
  classification: "yes (1)"
- compound: "CC(C)Br"
  classification: "no (0)"

----------
# experimentalDetails: qHTS assay for small molecule agonists of retinoid X receptor alpha signaling (AID 588544)
# conditionSet: HEK293T RXRa-UAS-bla, beta-lactamase reporter, 18 h; 530 nm emission
Results filed as inconclusive are left out.
Attribute: max response
observedProperty: max response (%)

- compound: "c1ccc(C2CO2)cc1 (configuration not stated)"
  observedProperty: "max response"
  valueObserved: -3.27
- compound: "O=S(=O)(Cl)c1ccccc1"
  observedProperty: "max response"
  valueObserved: -12.3
- compound: "O=S(=O)(O)F"
  observedProperty: "max response"
  valueObserved: -13.3
- compound: "Cc1ccc2c(C)cccc2c1"
  observedProperty: "max response"
  valueObserved: -13.5
- compound: "COC(=O)Nc1cccc(OC(=O)Nc2cccc(C)c2)c1"
  observedProperty: "max response"
  valueObserved: 14
- compound: "O=[N+]([O-])c1cccc(CCl)c1"
  observedProperty: "max response"
  valueObserved: 10.9
- compound: "ClC(Br)Br"
  observedProperty: "max response"
  valueObserved: -3.88
- compound: "Cl/C=C/CCl"
  observedProperty: "max response"
  valueObserved: -6.27
- compound: "Cc1ccc(N)cc1C"
  observedProperty: "max response"
  valueObserved: -0.563
- compound: "CCCCOCC1CO1 (configuration not stated)"
  observedProperty: "max response"
  valueObserved: 5.09
- compound: "CCCCC#N"
  observedProperty: "max response"
  valueObserved: 2.48
- compound: "CN(C)c1ccc(N(C)C)cc1"
  observedProperty: "max response"
  valueObserved: -11.6
- compound: "Brc1cccc(-c2ccccc2)c1"
  observedProperty: "max response"
  valueObserved: -12
- compound: "Cc1cc(Cl)ccc1O"
  observedProperty: "max response"
  valueObserved: -4.59
- compound: "c1ccoc1"
  observedProperty: "max response"
  valueObserved: -15.5
- compound: "CCCCNC(=O)n1c(NC(=O)OC)nc2ccccc21"
  observedProperty: "max response"
  valueObserved: 14.8
- compound: "CN(C)N=O"
  observedProperty: "max response"
  valueObserved: -8.99
- compound: "Cc1ccc(N)cc1Cl"
  observedProperty: "max response"
  valueObserved: -18.1
- compound: "CC[N+](=O)[O-]"
  observedProperty: "max response"
  valueObserved: -9.1
- compound: "[O-][Cl+2]([O-])O"
  observedProperty: "max response"
  valueObserved: 6.62
- compound: "Oc1cc(Cl)cc(Cl)c1"
  observedProperty: "max response"
  valueObserved: -13.2
- compound: "O=C(O)c1cccc(Cl)c1"
  observedProperty: "max response"
  valueObserved: -9.83
- compound: "O=[N+]([O-])c1ccccc1CCl"
  observedProperty: "max response"
  valueObserved: -8.73
- compound: "O=[N+]([O-])c1ccc(Cl)c(Cl)c1Cl"
  observedProperty: "max response"
  valueObserved: 3.54
- compound: "CC(C)CC(C)N (configuration not stated)"
  observedProperty: "max response"
  valueObserved: -12.2
- compound: "C=C(Cl)CSC(=S)N(CC)CC"
  observedProperty: "max response"
  valueObserved: -16.2
- compound: "Nc1ccc(-c2ccccc2)cc1"
  observedProperty: "max response"
  valueObserved: 9.85
- compound: "Nc1cccc(Cl)c1"
  observedProperty: "max response"
  valueObserved: 4.67
- compound: "C=COC(C)=O"
  observedProperty: "max response"
  valueObserved: -12.6
- compound: "Nc1cc(Cl)cc(Cl)c1"
  observedProperty: "max response"
  valueObserved: -17
- compound: "CCOC(=O)C1OC1(C)c1ccccc1 (configuration not stated)"
  observedProperty: "max response"
  valueObserved: -8.71
- compound: "CC1CC(=O)O1 (configuration not stated)"
  observedProperty: "max response"
  valueObserved: -12.1
- compound: "CCN(N=O)C(N)=O"
  observedProperty: "max response"
  valueObserved: -12
- compound: "C=C(C)CCl"
  observedProperty: "max response"
  valueObserved: -6
- compound: "O=C(O)CCl"
  observedProperty: "max response"
  valueObserved: -10.2
- compound: "C=CC(=O)OC"
  observedProperty: "max response"
  valueObserved: -10.9
- compound: "C=C(Cl)CCl"
  observedProperty: "max response"
  valueObserved: -8.31
